Target Under Test: UniProt:P49286
Sequence (P49286 whole entry): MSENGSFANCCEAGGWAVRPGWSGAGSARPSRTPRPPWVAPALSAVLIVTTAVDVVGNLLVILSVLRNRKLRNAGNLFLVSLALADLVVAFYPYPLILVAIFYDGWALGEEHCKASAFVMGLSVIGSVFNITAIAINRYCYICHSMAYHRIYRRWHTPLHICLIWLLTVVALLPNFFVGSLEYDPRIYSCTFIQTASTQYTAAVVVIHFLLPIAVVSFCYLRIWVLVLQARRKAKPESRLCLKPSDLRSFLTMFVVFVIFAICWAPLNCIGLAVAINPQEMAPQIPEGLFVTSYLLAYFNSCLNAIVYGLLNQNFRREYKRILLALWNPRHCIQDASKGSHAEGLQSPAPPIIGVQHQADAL
Assay Procedure: Binding affinity to MT2 receptor (unknown origin)
Outcome Measure: Ki
Could you kindly put the unit after your number?

Give reported Ki value for COc1cc2c([C@@H](C)CNC(C)=O)c[nH]c2cc1Cl
39.8 pM

* * *

Target Under Test: Melatonin receptor type 1A (Homo sapiens, UniProt P48039)
Sequence (P48039 whole entry): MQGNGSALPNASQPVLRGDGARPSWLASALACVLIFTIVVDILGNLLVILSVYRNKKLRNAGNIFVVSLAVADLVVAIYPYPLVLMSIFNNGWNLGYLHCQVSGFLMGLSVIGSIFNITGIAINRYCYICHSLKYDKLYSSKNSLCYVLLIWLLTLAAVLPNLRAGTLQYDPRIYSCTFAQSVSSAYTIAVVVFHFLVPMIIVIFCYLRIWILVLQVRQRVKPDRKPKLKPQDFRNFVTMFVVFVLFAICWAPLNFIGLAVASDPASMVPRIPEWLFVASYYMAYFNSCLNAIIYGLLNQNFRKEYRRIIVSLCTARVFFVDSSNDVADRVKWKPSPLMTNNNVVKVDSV
Assay Procedure: Partial agonist activity at human MT1 receptor expressed in CHO cells after 1 hr by [35S]GTPgammaS binding assay
Type: functional, cell-based
Outcome Measure: pEC50
By convention, pEC50 is the negative base-10 log of a molar concentration.

Give reported pEC50 value for CCC(=O)NC[C@H](CO)c1cccc2ccc(OC)cc12
7.71

Now, please, on to the next compound.
Give reported pEC50 value for COc1ccc2cccc([C@@H](CO)CNC(=O)CF)c2c1
7.10

* * *

Target Under Test: Melatonin receptor type 1A (Homo sapiens)
Assay Procedure: Binding affinity to MT1 receptor (unknown origin)
Outcome Measure: Ki (nM)
State just the number; it will be interpreted in nM.

Give reported Ki value for COc1cc2c([C@@H](C)CNC(C)=O)c[nH]c2cc1Cl
0.0794

* * *

Target Under Test: Melatonin receptor type 1A (Homo sapiens)
Assay Procedure: Displacement of 2-[125I]Iodomelatonin from human MT1 receptor expressed in CHO cell membranes after 120 mins
pKi: −log10 of the molar value.
So basically: pKi at 8 or higher? That is Y. Lower than 8? That is N.

Past entries and their recorded results:
Determine whether measured pKi meets or exceeds 8 for COc1ccc2cccc([C@H](CO)CNC(=O)CF)c2c1
N

Determine whether measured pKi meets or exceeds 8 for CCC(=O)NCC(CO)c1cccc2ccc(OC)cc12 (racemic)
Y

Determine whether measured pKi meets or exceeds 8 for COc1ccc2cccc(C(CO)CNC(=O)C(F)F)c2c1 (configuration not stated)
Y

Determine whether measured pKi meets or exceeds 8 for CCC(=O)NC[C@H](CO)c1cccc2ccc(OC)cc12
Y

As a next step, examine the compound that follows.
Determine whether measured pKi meets or exceeds 8 for CCC(=O)NC[C@@H](CO)c1cccc2ccc(OC)cc12
N
